# System: Hippocampal Cultures
# assay: Neuroprotection from hydrogen peroxide (oxidative stress), propidium iodide assay
# Format: cell-based
# recorded_conditions: Rattus norvegicus, read-out: NP from HP PI EC50
pEC50: −log10 of the molar value.
test_readout: pEC50

// query // lookup pEC50 for CC(C)(CNS(N)(=O)=O)C(O)c1ccccc1F (stereo not drawn) [Example 5]
// result < 3.52

// query // lookup pEC50 for NS(=O)(=O)NCC[C@@H](O)c1ccccc1F [Example 16]
// result < 3.52

// query // lookup pEC50 for CC(O)(CCNS(N)(=O)=O)c1ccccc1Cl (stereo not drawn) [Example 3]
// result < 3.52
